# Study Target: ENaC beta subunit (epithelial sodium channel subunit beta) (Homo sapiens)
# Sequence (P51168 whole entry): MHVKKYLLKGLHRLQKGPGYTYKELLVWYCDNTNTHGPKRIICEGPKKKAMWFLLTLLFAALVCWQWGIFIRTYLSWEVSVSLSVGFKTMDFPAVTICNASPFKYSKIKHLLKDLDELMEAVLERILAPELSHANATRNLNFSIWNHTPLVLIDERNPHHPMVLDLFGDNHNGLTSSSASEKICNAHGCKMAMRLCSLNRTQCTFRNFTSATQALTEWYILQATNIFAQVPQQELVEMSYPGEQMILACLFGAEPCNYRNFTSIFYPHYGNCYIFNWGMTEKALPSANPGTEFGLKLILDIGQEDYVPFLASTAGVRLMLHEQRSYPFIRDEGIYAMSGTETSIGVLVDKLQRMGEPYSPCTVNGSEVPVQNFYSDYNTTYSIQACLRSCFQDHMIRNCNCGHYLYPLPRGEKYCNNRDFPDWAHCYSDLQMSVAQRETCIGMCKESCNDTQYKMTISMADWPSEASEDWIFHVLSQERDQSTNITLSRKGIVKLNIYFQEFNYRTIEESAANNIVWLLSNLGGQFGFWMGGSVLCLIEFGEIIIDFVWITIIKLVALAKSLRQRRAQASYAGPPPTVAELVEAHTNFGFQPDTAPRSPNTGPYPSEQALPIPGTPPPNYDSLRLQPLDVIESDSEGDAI
# Procedure Text: Inhibition of S-3969-stimulated recombinant human ENaC beta subunit expressed in HEK293 cells at 10 uM preincubated for 5 mins followed by S-3969 stimulation by FLIPR assay
# Assay type: cell-based
# Run Conditions: HEK293 cells expressing recombinant human ENaC beta subunit
Outcome Measure: inhibition at 5 min, 10 µM (%)
Write the answer as a number in %, unit excluded.

// inhibition at 5 min, 10 µM lookup, key: N=C(N)NC(=O)c1nc(Cl)c(N)nc1N [AMILORIDE]
68

###

Outcome Measure: log10 Ki (log10 of the value in nM)
Record value = log10 of Ki given in nM.

Entry `COc1cc(-c2nc(C(=O)NC(=N)N)c(N)nc2N2CCCCCC2)c(OC)nn1` , system Urokinase-type plasminogen activator (Homo sapiens): what log10 Ki was measured?
2.50

Entry `N=C(N)NC(=O)c1nc(-c2cc3ccccc3o2)c(N2CCCCCC2)nc1N` , system Urokinase-type plasminogen activator (Homo sapiens): what log10 Ki was measured?
2.26

Entry `N=C(N)NC(=O)c1nc(-c2ccco2)c(N2CCCCCC2)nc1N` , system Urokinase-type plasminogen activator (Homo sapiens): what log10 Ki was measured?
2.19

Entry `N=C(N)NC(=O)c1nc(-c2ccc3c(c2)OCO3)c(N2CCCCCC2)nc1N` , system Urokinase-type plasminogen activator (Homo sapiens): what log10 Ki was measured?
2.97

Entry `N=C(N)NC(=O)c1nc(-c2cncnc2)c(N2CCCCCC2)nc1N` , system Urokinase-type plasminogen activator (Homo sapiens): what log10 Ki was measured?
2.03

Entry `N=C(N)NC(=O)c1nc(-c2ccsc2)c(N2CCCCCC2)nc1N` , system Urokinase-type plasminogen activator (Homo sapiens): what log10 Ki was measured?
3.01

Entry `N=C(N)NC(=O)c1nc(-c2cncc3ccccc23)c(N2CCCCCC2)nc1N` , system Urokinase-type plasminogen activator (Homo sapiens): what log10 Ki was measured?
3.55

Entry `N=C(N)NC(=O)c1nc(-c2cnc(N)nc2)c(N2CCCCCC2)nc1N` , system Urokinase-type plasminogen activator (Homo sapiens): what log10 Ki was measured?
1.32

Entry `COc1ncc(-c2nc(C(=O)NC(=N)N)c(N)nc2N2CCCCCC2)c(OC)n1` , system Urokinase-type plasminogen activator (Homo sapiens): what log10 Ki was measured?
1.62

Entry `COc1cc(OC)cc(-c2nc(C(=O)NC(=N)N)c(N)nc2N2CCCCCC2)c1` , system Urokinase-type plasminogen activator (Homo sapiens): what log10 Ki was measured?
3.12

Entry `COc1ccc(-c2nc(C(=O)NC(=N)N)c(N)nc2N2CCCCCC2)c(OC)n1` , system Urokinase-type plasminogen activator (Homo sapiens): what log10 Ki was measured?
2.95

Entry `N=C(N)NC(=O)c1nc(-c2cnn(CCN3CCOCC3)c2)c(N2CCCCCC2)nc1N` , system Urokinase-type plasminogen activator (Homo sapiens): what log10 Ki was measured?
2.82

Entry `N=C(N)NC(=O)c1nc(-c2ccccc2)c(N2CCCCCC2)nc1N` , system Urokinase-type plasminogen activator (Homo sapiens): what log10 Ki was measured?
3.70

Entry `CC(C)Nc1ncc(-c2nc(C(=O)NC(=N)N)c(N)nc2N2CCCCCC2)cn1` , system Urokinase-type plasminogen activator (Homo sapiens): what log10 Ki was measured?
1.62

Entry `N=C(N)NC(=O)c1nc(-c2cc3c(F)cccc3o2)c(N2CCCCCC2)nc1N` , system Urokinase-type plasminogen activator (Homo sapiens): what log10 Ki was measured?
1.94

Entry `N=C(N)NC(=O)c1nc(-c2cccnc2F)c(N2CCCCCC2)nc1N` , system Urokinase-type plasminogen activator (Homo sapiens): what log10 Ki was measured?
3.25

Entry `CSc1ccc(-c2nc(C(=O)NC(=N)N)c(N)nc2N2CCCCCC2)cc1` , system Urokinase-type plasminogen activator (Homo sapiens): what log10 Ki was measured?
4.21

Entry N=C(N)NC(=O)c1nc(Cl)c(N2CCCCCC2)nc1N [N,N-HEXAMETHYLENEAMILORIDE] , system Urokinase-type plasminogen activator (Homo sapiens): what log10 Ki was measured?
3.13

Entry `N=C(N)NC(=O)c1nc(-c2cccs2)c(N2CCCCCC2)nc1N` , system Urokinase-type plasminogen activator (Homo sapiens): what log10 Ki was measured?
3.38

Entry `N=C(N)NC(=O)c1nc(-c2cc3ccccc3s2)c(N2CCCCCC2)nc1N` , system Urokinase-type plasminogen activator (Homo sapiens): what log10 Ki was measured?
3.52

Entry `N=C(N)NC(=O)c1nc(-c2cc3ccccc3[nH]2)c(N2CCCCCC2)nc1N` , system Urokinase-type plasminogen activator (Homo sapiens): what log10 Ki was measured?
3.75

Entry `N=C(N)NC(=O)c1nc(-c2ccc(C(F)(F)F)cc2)c(N2CCCCCC2)nc1N` , system Urokinase-type plasminogen activator (Homo sapiens): what log10 Ki was measured?
3.63

Entry `N=C(N)NC(=O)c1nc(-c2cnc(NCCO)nc2)c(N2CCCCCC2)nc1N` , system Urokinase-type plasminogen activator (Homo sapiens): what log10 Ki was measured?
1.61

Entry `CNc1ncc(-c2nc(C(=O)NC(=N)N)c(N)nc2N2CCCCCC2)cn1` , system Urokinase-type plasminogen activator (Homo sapiens): what log10 Ki was measured?
1.63

Entry `COc1ccc(-c2nc(C(=O)NC(=N)N)c(N)nc2N2CCCCCC2)c(OC)c1` , system Urokinase-type plasminogen activator (Homo sapiens): what log10 Ki was measured?
3.34

Entry `Cn1cc(-c2nc(C(=O)NC(=N)N)c(N)nc2N2CCCCCC2)cn1` , system Urokinase-type plasminogen activator (Homo sapiens): what log10 Ki was measured?
2.71

Entry `N=C(N)NC(=O)c1nc(Nc2ncccn2)c(N2CCCCCC2)nc1N` , system Urokinase-type plasminogen activator (Homo sapiens): what log10 Ki was measured?
2.36

Entry `COc1ncc(-c2nc(C(=O)NC(=N)N)c(N)nc2N2CCCCCC2)cn1` , system Urokinase-type plasminogen activator (Homo sapiens): what log10 Ki was measured?
1.72

Entry `N=C(N)NC(=O)c1nc(-c2ccoc2)c(N2CCCCCC2)nc1N` , system Urokinase-type plasminogen activator (Homo sapiens): what log10 Ki was measured?
2.22
